Each recorded value in this set is attributed to patent US12195460B2.

Recorded Kp at 24 h by entry
procedure text: Brain levels (Kp and Kpu,u) in mice after oral administration
Assay type: in vivo, CDI mice
condition set: CDI, mouse, 20 mg/kg, 20 mpk PO, whole brain AUC over 24 h divided by plasma AUC
metric: Kp at 24 h

compound="OCC1(CNc2nnc(-c3ccc(Cl)cc3O)c3ccncc23)CC1 [Compound 8, reference compound]" recorded_value="< 0.3"
compound=Cc1ccc(-c2nnc(N[C@H]3COC(C)(C)C3)c3cnccc23)c(O)c1 recorded_value="> 0.3"
compound=[2H]C([2H])([2H])OC(C)(C)CNc1nnc(-c2ccc(C(F)F)cc2O)c2ccncc12 recorded_value="> 0.3"
compound=CC1(C)COCC[C@H]1Nc1nnc(-c2ccc(Cl)cc2O)c2ccncc12 recorded_value="> 0.3"
